- Test system: Plasmodium falciparum
- experimental_protocol: NOVARTIS: Inhibition of Plasmodium falciparum 3D7 (drug-susceptible) proliferation in erythrocyte-based infection assay
- Format: functional, organism-based
- condition_set: Plasmodium falciparum, 3D7
Examples of molecules with documented EC50 follow.

COc1nccnc1NS(=O)(=O)c1ccc(NC(=O)c2cc3ccccc3oc2=O)cc1 : > 1250 nM
CCCCCCCSc1nsc(NC(=O)CCC)n1 : > 1310 nM

Then there is this molecule:
-- ask Returns the measured EC50 for the input molecule. Input: Cc1cc2c(cc1S(=O)(=O)N1CCCCC1C)OCC(=O)N2 (stereo not drawn)
-- reply > 12500 nM

====

- experimental_protocol: NOVARTIS: Cytotoxicity against human hepatocellular carcinoma cell line (Huh7)
- Format: toxicity, cell-based, Huh-7
- condition_set: Huh7 cells (hepatocellular carcinoma cell line)
Examples of molecules with documented CC50 follow.

Examples from the recorded data:
CCCN1CCC(NC(c2ccccc2)c2ccc(Cl)cc2)CC1 (configuration not stated) : 20.2 µM
O=Cc1c(OCc2ccc(Cl)cc2Cl)ccc2ccccc12 : > 10 µM
CCCOC(=O)C1=C(C)NC2=C(C(=O)CC(c3ccc(OC)c(OC)c3)C2)C1c1ccc(Br)cc1 (configuration not stated) : > 100 µM
Cc1ccccc1Nc1nc(NCCO)c2ccccc2n1 : 23.7 µM
CCOC(=O)c1ccc(NCc2c(C)[nH]c(C(=O)OCC)c2C)cc1 : > 100 µM
CCNC(=O)C1CCN(c2cccc3c2C(=O)N(C2CCCCCCC2)C3=O)CC1 : > 100 µM

-- ask Returns the measured CC50 for the input molecule. Input: CN(C)C(=O)CN(C)C(=O)c1cnc2scc(C(C)(C)C)n2c1=O
-- reply > 10 µM

====

- experimental_protocol: NOVARTIS: Cytotoxicity against human hepatocellular carcinoma cell line (Huh7)
- Format: toxicity, cell-based, Huh-7
- condition_set: Huh7 cells (hepatocellular carcinoma cell line)
Examples of compounds with documented CC50 follow.

Examples from the recorded data:
COC(=O)COc1ccc(/C=C2\SC(=Nc3ccc(F)cc3)NC2=O)cc1 : > 10 µM
Cc1ccc(Cn2c(N3CCC(C(=O)NCc4ccccn4)CC3)nc3ccccc32)cc1 : > 100 µM
c1ccc(/C2=N/c3ccccc3/N=C(/c3ccccc3)c3ccccc32)cc1 : > 100 µM
COc1cc(/C=C\C(=O)Nc2c3c(nn2-c2ccc(F)cc2)CSC3)cc(OC)c1OC : > 10 µM
COc1cc(C=C(C#N)c2nc3ccccc3[nH]2)ccc1OCc1ccc(Cl)cc1 : > 100 µM

-- ask Returns the measured CC50 for the input compound. Input: CCOC(=O)c1c[nH]c2ccc(C)cc2c1=O
-- reply > 100 µM

-- ask Returns the measured CC50 for the input compound. Input: Cc1noc(C)c1S(=O)(=O)N(Cc1ccccc1)CC(O)CN1CCC(NC(=O)c2ccccc2Cl)C1 (stereo not given)
-- reply > 10 µM

-- ask Returns the measured CC50 for the input compound. Input: O=C1CCC(CCNCc2ccc(Cl)cc2)N1CC1(N2CCCCC2)CCCC1 (stereo not given)
-- reply > 10 µM

-- ask Returns the measured CC50 for the input compound. Input: Nc1c(C(=O)Nc2ccc(C3=NCCN3)cc2)cccc1C(=O)Nc1ccc(C2=NCCN2)cc1
-- reply > 10 µM

-- ask Returns the measured CC50 for the input compound. Input: COc1ccccc1CCNCc1cc(-c2ccc(F)cc2)ccc1O
-- reply > 10 µM
